Tested on: ryegrass, Italian (Italian ryegrass, Lolium multiflorum)
Assay: Test A preemergence
Type: in vivo
Conditions: 125 g ai/ha, Preemergence; visual injury after approximately 10 d; 0 to 100 scale where 0 is no effect and 100 is complete control
Recorded endpoint: Plant response rating, Ryegrass, Italian

Reference set, count: 4
# Compound, Plant response rating, Ryegrass, Italian
measured = [
    ("CC(C)c1ccc(C2CNC(=O)C2C(=O)Nc2ccccc2S(C)(=O)=O)cc1 (racemic) [Compound 500]", 0),
    ("O=C1NCC(c2cccc(F)c2F)C1C(=O)Nc1ccccc1F (centres unmarked) [Compound 494]", 0),
    ("C=C(C)CN1CC(c2cccc(C(F)(F)F)c2)C(C(=O)Nc2cccc(F)c2F)C1=O (centres unmarked) [Compound 479]", 0),
    ("CC(C)c1ccc(C2CNC(=O)C2C(=O)Nc2cccc(F)c2F)cc1 (centres unmarked) [Compound 470]", 0),
]

Count: 4. Required value per item: Plant response rating, Ryegrass, Italian.
1. O=C1NCC(c2c(F)cccc2F)C1C(=O)Nc1cccc(F)c1F (racemic) [Compound 516]
2. C=C(C)CN1CC(c2cccc(C(F)(F)F)c2)C(C(=O)Nc2ccccc2F)C1=O (centres unmarked) [Compound 481]
3. CN1CC(c2cccc(C(F)(F)F)c2)C(C(=O)Nc2ccc(F)cc2F)C1=O (centres unmarked) [Compound 571]
4. O=C(Nc1ccccc1F)C1C(=O)N(CC=CBr)CC1c1cccc(C(F)(F)F)c1 (centres unmarked) [Compound 484]

a:
1: 0; 2: 0; 3: 60; 4: 0

Quick one: give me Plant response rating, Ryegrass, Italian for each item below, same order please.
1. CC(C)c1ccc(C2CNC(=O)C2C(=O)Nc2ccccc2F)cc1 (centres unmarked) [Compound 469]
2. CN1CC(c2cccc(F)c2)C(C(=O)Nc2ccc(F)cc2F)C1=O (centres unmarked) [Compound 633]
3. O=C1NCC(c2cc(F)ccc2F)C1C(=O)Nc1cccc(F)c1F (racemic) [Compound 546]

a:
1: 0; 2: 30; 3: 0

----------
Kindly state pest or weed control at 500 g/ha for each of the entries shown.
Tested on: ragweed (common ragweed, Ambrosia elatior)
Assay: Test A preemergence
Assay type: in vivo
Settings: Ambrosia artemisiifolia, pre-emergence, 240 h, 500 g ai/ha, preemergence; 0 to 100 scale where 0 is no effect and 100 is complete control; read-out: Ragweed plant response rating
Give bare numbers, in %.

Study these solved cases before continuing.
# Structure, Experimental target, Observed measurement
records = [
    ("COc1ccc([C@H]2CN(C)C(=O)[C@@H]2C(=O)Nc2cccc(F)c2F)c(OC)c1", "ragweed (common ragweed, Ambrosia elatior)", 90),
    ("Cc1c(F)cccc1NC(=O)[C@H]1C(=O)N(C)C[C@@H]1c1ccc(C(F)(F)F)nc1", "ragweed (common ragweed, Ambrosia elatior)", 100),
    ("COc1cc([C@H]2CN(C)C(=O)[C@@H]2C(=O)Nc2cccc(F)c2C)ccc1F", "ragweed (common ragweed, Ambrosia elatior)", 80),
]

From here, focus on the item given below.
q: Which measured pest or weed control at 500 g/ha value corresponds to CCc1ccc([C@H]2CNC(=O)[C@@H]2C(=O)Nc2c(F)cccc2F)cc1 ?
a: 0

----------
Test system: blackgrass (Alopecurus myosuroides)
Test: Test A postemergence
Assay type: in vivo
Details: Alopecurus myosuroides, post-emergence, 240 h, 125 g ai/ha, Postemergence, visual rating about 10 d after treatment; read-out: Blackgrass plant response rating (0 to 100 scale)
Consider the following compounds; for each one, report its pest or weed control at 125 g/ha.
Give bare numbers, in %.

Examples with their reported pest or weed control at 125 g/ha follow.
# Structure, Measure unit, pest or weed control at 125 g/ha
rows = [
    ("Cc1c(F)cccc1NC(=O)[C@H]1C(=O)N(C)C[C@@H]1c1ccc2c(c1)C(F)(F)C(F)(F)O2", "%", 40),
    ("CN1C[C@H](c2ccc(C(F)(F)F)cc2)[C@@H](C(=O)Nc2cccc(F)c2C#N)C1=O", "%", 40),
]

Shifting focus to the compound that follows.
q: # lookup: pest or weed control at 125 g/ha of CN1C[C@H](c2ccc3c(c2)CCO3)[C@@H](C(=O)Nc2cccc(F)c2F)C1=O
a: 40

All figures here come from patent US12077503B2.
